- protocol-text: AUC in Sprague-Dawley rat at 5.0 mg/kg, iv
- Assay type: ADME, organism-based
- Set-up: dose 5 mg/kg, route intravenous
- measurement-setup: plasma
measured-parameter: AUC (µM·h)

# smiles-repr, unit-name, test-value
records = [
    ("O=C(N[C@@H]1CCOC[C@@H]1C(=O)NO)c1ccc(Cn2c(C(F)(F)F)nc3ccccc32)cc1", "µM·h", 6.85),
]

---

- study-system: Interstitial collagenase (Homo sapiens)
- Sequence (P03956 whole entry): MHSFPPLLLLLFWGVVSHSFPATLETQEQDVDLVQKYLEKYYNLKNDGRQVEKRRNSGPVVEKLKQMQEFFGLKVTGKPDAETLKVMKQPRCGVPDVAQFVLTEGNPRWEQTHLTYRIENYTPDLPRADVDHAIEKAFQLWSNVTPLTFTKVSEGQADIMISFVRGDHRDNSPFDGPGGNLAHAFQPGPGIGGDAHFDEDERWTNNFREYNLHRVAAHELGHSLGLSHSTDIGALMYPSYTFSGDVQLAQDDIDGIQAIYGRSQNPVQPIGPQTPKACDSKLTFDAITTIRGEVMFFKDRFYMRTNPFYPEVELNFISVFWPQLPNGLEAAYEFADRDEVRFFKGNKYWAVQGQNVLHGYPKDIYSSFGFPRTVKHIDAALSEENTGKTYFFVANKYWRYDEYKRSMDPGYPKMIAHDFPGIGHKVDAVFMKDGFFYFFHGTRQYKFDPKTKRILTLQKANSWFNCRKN
measured-parameter: Ki

# smiles-repr, test-value
measured = [
    ("C#CCN1C[C@H](C(=O)NO)[C@H](NC(=O)c2ccc(Cn3c(C(C)C)nc4ccccc43)cc2)C1", "> 4.95 µM"),
    ("CC(C)c1nc2ccccc2n1Cc1ccc(C(=O)N[C@@H]2CNC[C@@H]2C(=O)NO)cc1", "> 2.13 µM"),
    ("CSc1nc2ccccc2n1Cc1ccc([C@]2(N)CCN([C@H](CC(C)C)C(=O)NO)C2=O)cc1", "> 4.95 µM"),
    ("CSc1nc2ccccc2n1Cc1ccc(C(=O)N[C@@H]2CN(C(=O)OC(C)(C)C)C[C@@H]2C(=O)NO)cc1", "> 2.13 µM"),
    ("CC(F)(F)c1nc2ccccc2n1Cc1ccc(C(=O)N[C@@H]2CCOC[C@@H]2C(=O)NO)cc1", "> 4.95 µM"),
    ("CC(C)(F)c1nc2ccccc2n1Cc1ccc(C(=O)N[C@@H]2C[C@@]3(CCCO3)C[C@@H]2C(=O)NO)cc1", "> 4.95 µM"),
    ("O=C(N[C@@H]1CCC[C@@H]1C(=O)NO)c1ccc(Cn2c(C3CC3)nc3ccccc32)cc1", "> 4.95 µM"),
    ("O=C(N[C@@H]1C[C@@]2(CCCO2)C[C@@H]1C(=O)NO)c1ccc(Cn2c(C3CC3)nc3ccccc32)cc1", "> 4.95 µM"),
]

// provenance: ChEMBL document CHEMBL1141492
